System: SW620 human colorectal cancer cells
protocol_description: MTT based cell viability assay: potentiation of the growth inhibiting activity of MMS
test_context: Homo sapiens, SW-620, 120 h, read-out: IC50 (nM), potentiation of the growth inhibiting activity of MMS, SW620 cells, 1.7 μg/ml MMS, 5 days (120 hours), MTT
Collected IC50 values appear next to each entry.
Number in nM, nothing else.

See these solved cases before continuing.
{"compound_smiles": "O=C(c1ccsc1)N1CCN(C(=O)c2cccc(Cn3c(=O)[nH]c(=O)c4ccccc43)c2)CC1", "scale_unit": "nM", "IC50": 265}
{"compound_smiles": "O=C(c1cc(Cn2c(=O)[nH]c(=O)c3ccccc32)ccc1Cl)N1CCN(c2ncccn2)CC1", "scale_unit": "nM", "IC50": 417}
{"compound_smiles": "O=C(c1cccc(Cn2c(=O)[nH]c(=O)c3c(Cl)cccc32)c1)N1CCN(C(=O)C2CCCC2)CC1", "scale_unit": "nM", "IC50": 117}
{"compound_smiles": "O=C(c1cccc(Cn2c(=O)[nH]c(=O)c3ccccc32)c1)N1CCN(C(=O)C2CC2)CC1", "scale_unit": "nM", "IC50": 666}

Query block: Provide SW620 human colorectal cancer cells IC50 reading for O=C(c1cccc(Cn2c(=O)[nH]c(=O)c3ccccc32)c1)N1CCC(Oc2ccccc2)CC1 .
Result block: 604

Query block: Provide SW620 human colorectal cancer cells IC50 reading for O=C(c1cccc(Cn2c(=O)[nH]c(=O)c3cccc(Cl)c32)c1)N1CCN(c2ncccn2)CC1 .
Result block: 1110
